Experiment: % Decrease of Phorbol Diester Receptor -bound radioactivity using PDBU as a radioligand.
Design: scale not given: the % may be the effect or the level left
observable: Activity (%)
Numbers only; they are read as %.

Fill in: Activity of `COc1cc2c(cc1OC)Cc1[nH]c3ccccc3c1CCN(C)CC2` is ___
-1

What value of Activity has been recorded for this entry: `CN1CCc2c([nH]c3ccccc23)Cc2[nH]c3ccccc3c2CC1`
-5

# Activity lookup, item C[N+]12CCc3c([nH]c4ccccc34)C1c1[nH]c3ccccc3c1CC2 (configuration not stated)
-17

So what does the record say about Activity for `c1ccc2c3c([nH]c2c1)C1c2[nH]c4ccccc4c2CCN1CC3` ?
-15

Give its Activity value. Item: `CN1CCc2ccccc2Cc2[nH]c3ccccc3c2CC1`
0

Could you tell me which Activity is on file for COc1cc2c(cc1OC)C1c3[nH]c4ccccc4c3CCN1CC2 (configuration not stated) ?
-9

Look at this compound and give its reported Activity. c1ccc2c(c1)CCN1CCc3c([nH]c4ccccc34)C21 (configuration not stated)
-6

* * *

Biological target: Serotonin 2 (5-HT2) receptor (Rattus norvegicus) (UniProt P30994+P08909+P14842)
Sequence (P08909 whole entry, looked up): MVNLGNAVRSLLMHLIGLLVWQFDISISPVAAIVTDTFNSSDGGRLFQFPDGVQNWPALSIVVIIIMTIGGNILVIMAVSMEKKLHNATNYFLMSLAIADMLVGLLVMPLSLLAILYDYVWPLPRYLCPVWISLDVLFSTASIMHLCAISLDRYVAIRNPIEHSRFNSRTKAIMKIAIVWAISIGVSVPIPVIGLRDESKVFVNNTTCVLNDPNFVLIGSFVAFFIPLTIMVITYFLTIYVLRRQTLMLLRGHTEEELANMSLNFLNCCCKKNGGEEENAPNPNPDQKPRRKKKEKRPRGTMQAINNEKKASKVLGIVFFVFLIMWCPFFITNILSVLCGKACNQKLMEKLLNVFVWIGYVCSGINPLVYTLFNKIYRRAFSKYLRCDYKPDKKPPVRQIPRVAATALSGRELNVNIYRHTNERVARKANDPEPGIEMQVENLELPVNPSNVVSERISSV
Sequence (P14842 whole entry, looked up): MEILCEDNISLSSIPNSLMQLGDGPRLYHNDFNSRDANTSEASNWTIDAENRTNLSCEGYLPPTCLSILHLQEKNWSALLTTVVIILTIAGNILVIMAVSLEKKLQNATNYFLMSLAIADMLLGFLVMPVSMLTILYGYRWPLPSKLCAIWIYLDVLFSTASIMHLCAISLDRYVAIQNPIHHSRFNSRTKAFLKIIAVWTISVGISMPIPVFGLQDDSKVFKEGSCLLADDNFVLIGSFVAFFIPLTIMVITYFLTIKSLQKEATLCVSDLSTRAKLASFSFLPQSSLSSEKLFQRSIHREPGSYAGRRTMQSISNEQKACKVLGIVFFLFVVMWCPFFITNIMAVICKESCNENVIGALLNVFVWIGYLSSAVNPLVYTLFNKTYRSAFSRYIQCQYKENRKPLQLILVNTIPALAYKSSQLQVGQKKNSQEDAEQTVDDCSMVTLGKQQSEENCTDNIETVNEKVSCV
Sequence (P30994 whole entry, looked up): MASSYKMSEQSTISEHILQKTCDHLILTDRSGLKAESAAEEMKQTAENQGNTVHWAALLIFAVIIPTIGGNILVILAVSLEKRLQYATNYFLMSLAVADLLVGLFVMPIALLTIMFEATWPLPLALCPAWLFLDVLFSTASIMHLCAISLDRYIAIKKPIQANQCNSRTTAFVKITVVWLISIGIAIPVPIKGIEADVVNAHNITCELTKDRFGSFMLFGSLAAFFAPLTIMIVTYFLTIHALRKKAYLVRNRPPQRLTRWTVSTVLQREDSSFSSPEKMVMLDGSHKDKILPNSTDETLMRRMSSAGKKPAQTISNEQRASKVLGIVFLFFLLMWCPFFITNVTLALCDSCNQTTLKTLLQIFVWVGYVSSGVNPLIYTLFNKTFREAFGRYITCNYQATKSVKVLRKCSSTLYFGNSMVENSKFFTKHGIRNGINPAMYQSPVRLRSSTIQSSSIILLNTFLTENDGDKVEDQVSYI
Experiment: Percent decrease in 5-hydroxytryptamine 2 receptor binding using ketanserin
Format: protein assay
Parameters: scale not given: the % may be the effect or the level left
observable: Activity (%)
The reply should be a number in %, with the unit left off.

Value lookup for Activity; key = `c1ccc2c3c([nH]c2c1)C1c2[nH]c4ccccc4c2CCN1CC3`
-52

I have this compound here, c1ccc2c(c1)CCN1CCc3c([nH]c4ccccc34)C21 (centres undefined) , and I need its recorded Activity.
-41

Name the reported Activity value associated with the compound COc1cc2c(cc1OC)C1c3[nH]c4ccccc4c3CCN1CC2 (centres undefined)
-32

Activity lookup needed for C[N+]12CCc3c([nH]c4ccccc34)C1c1[nH]c3ccccc3c1CC2 (centres undefined) , thanks.
-32

* * *

Assay: Percent decrease of Endothelin receptor binding using [125I]sarafotoxin
Parameters: concentration or dose not given beside the values
observable: Activity
Answer shape: numeric part, then the unit.

// Activity lookup, key: `COc1cc2c(cc1OC)Cc1[nH]c3ccccc3c1CCN(C)CC2`
1%

Name the reported Activity value associated with the compound `c1ccc2c3c([nH]c2c1)C1c2[nH]c4ccccc4c2CCN1CC3`
1%

Name the reported Activity value associated with the compound COc1cc2c(cc1OC)C1c3[nH]c4ccccc4c3CCN1CC2 (configuration not stated)
0%

Fill blank: measured Activity of the compound C[N+]12CCc3c([nH]c4ccccc34)C1c1[nH]c3ccccc3c1CC2 (configuration not stated) is ____.
0%

I am curious: what Activity value has been reported for `CN1CCc2ccccc2Cc2[nH]c3ccccc3c2CC1` ?
0%

Need Activity of `CN1CCc2c([nH]c3ccccc23)Cc2[nH]c3ccccc3c2CC1` , thanks.
0%

Bench note: what Activity did c1ccc2c(c1)CCN1CCc3c([nH]c4ccccc34)C21 (configuration not stated) show?
-1%

* * *

Molecular target: D(2) dopamine receptor (Rattus norvegicus, UniProt P61169)
Sequence (P61169 whole entry): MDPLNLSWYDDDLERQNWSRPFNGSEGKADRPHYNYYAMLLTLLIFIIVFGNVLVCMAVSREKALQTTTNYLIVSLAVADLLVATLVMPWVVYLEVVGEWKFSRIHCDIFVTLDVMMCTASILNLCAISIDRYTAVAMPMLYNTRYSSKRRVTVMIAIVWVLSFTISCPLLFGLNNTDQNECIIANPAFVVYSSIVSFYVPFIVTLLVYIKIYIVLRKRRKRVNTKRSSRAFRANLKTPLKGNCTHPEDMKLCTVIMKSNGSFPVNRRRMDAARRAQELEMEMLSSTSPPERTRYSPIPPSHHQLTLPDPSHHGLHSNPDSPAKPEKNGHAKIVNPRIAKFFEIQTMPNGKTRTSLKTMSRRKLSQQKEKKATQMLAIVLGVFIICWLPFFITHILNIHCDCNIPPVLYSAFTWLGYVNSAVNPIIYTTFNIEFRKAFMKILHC
Assay: Binding affinity against Dopamine receptor D2 of rat striatal mambranes using [3H]spiperone
So I've got a bunch of compounds here, and I need their Ki values.
Write the number in nM without appending the unit.

API: value(readout=Ki, system=D(2) dopamine receptor (Rattus norvegicus, UniProt P61169)) for record `CN1CCc2ccccc2Cc2[nH]c3ccccc3c2CC1`
6

Requested read-out Ki, target or system D(2) dopamine receptor (Rattus norvegicus, UniProt P61169), entry `COc1cc2c(cc1OC)Cc1[nH]c3ccccc3c1CCN(C)CC2`
730

# value lookup — system D(2) dopamine receptor (Rattus norvegicus, UniProt P61169), readout Ki, item `CN1CCc2c([nH]c3ccccc23)Cc2[nH]c3ccccc3c2CC1`
79
